- Test system: SUP-B15;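 also: ALL cell lines in 384-well plates, five doses spanning 10,000-fold, each plate scaled between vehicle and 100 µmol/L benzalkonium chloride controls, sDSS an adapted area-under-curve metric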
- experiment: selective drug sensitivity score (sDSS, relative to normal bone marrow) (sDSS (score)); higher = more potent and effective on the cell line relative to normal bone marrow cells
- testConditions: 72 h

{"compound": "CC(C)C[C@@H](C(=O)N[C@H](C(=O)OC1CCCC1)c1ccccc1)[C@H](O)C(=O)NO [Tosedostat] (top concentration 10000 nM)", "selective drug sensitivity score": 11}
{"compound": "CCC(C)n1ncn(-c2ccc(N3CCN(c4ccc(OCC5COC(Cn6cncn6)(c6ccc(Cl)cc6Cl)O5)cc4)CC3)cc2)c1=O (centres undefined) [Itraconazole] (top concentration 5000 nM)", "selective drug sensitivity score": 1.18}
{"compound": "Cc1cc(Nc2cc(N3CCN(C)CC3)nc(Sc3ccc(NC(=O)C4CC4)cc3)n2)n[nH]1 [Tozasertib] (top concentration 10000 nM)", "selective drug sensitivity score": 19.1}
{"compound": "CN(C)c1cc2c(cc1Sc1nc3c(N)nccc3n1CCNCC(C)(C)C)OCO2 [CUDC-305] (top concentration 10000 nM)", "selective drug sensitivity score": 3.22}
{"compound": "COC(=O)C[C@](O)(CCCC(C)(C)O)C(=O)O[C@@H]1C(OC)=C[C@]23CCCN2CCc2cc4c(cc2[C@H]13)OCO4 [Omacetaxine] (top concentration 10000 nM)", "selective drug sensitivity score": 7.82}
{"compound": "CC(C)(O)CNc1nc(Nc2ccnc(C(F)(F)F)c2)nc(-c2cccc(C(F)(F)F)n2)n1 [Enasidenib] (top concentration 10000 nM)", "selective drug sensitivity score": -0.3}
{"compound": "CC(C)(C)c1cc(NC(=O)Nc2ccc(-c3cn4c(n3)sc3cc(OCCN5CCOCC5)ccc34)cc2)no1 [Quizartinib] (top concentration 1000 nM)", "selective drug sensitivity score": 0.38}
{"compound": "O=C(c1cccc(Cl)c1F)N1CCN(Cc2cccc(Nc3nccs3)n2)CC1 [MK-8745] (top concentration 10000 nM)", "selective drug sensitivity score": 18.3}
{"compound": "CCOc1ccccc1-n1c(C(C)N2CCN(C(=O)COc3ccc(Cl)cc3)CC2)nc2ccccc2c1=O (centres undefined) [Erastin] (top concentration 10000 nM)", "selective drug sensitivity score": 14}
{"compound": "CC[C@]1(O)C[C@H]2CN(CCc3c([nH]c4ccccc34)[C@@](C(=O)OC)(c3cc4c(cc3OC)N(C)[C@H]3[C@@](O)(C(=O)OC)[C@H](OC(C)=O)[C@]5(CC)C=CCN6CC[C@]43[C@@H]65)C2)C1 [Vinblastine] (top concentration 1000 nM)", "selective drug sensitivity score": 12.9}
{"compound": "CC(C)C[C@H](NC(=O)[C@H](CCc1ccccc1)NC(=O)CN1CCOCC1)C(=O)N[C@@H](Cc1ccccc1)C(=O)N[C@@H](CC(C)C)C(=O)[C@@]1(C)CO1 [Carfilzomib] (top concentration 1000 nM)", "selective drug sensitivity score": 4.56}
{"compound": "COc1cc2c(cc1OC(C)C)[C@H](c1ccc(Cl)cc1)N(c1ccc(N(C)C[C@H]3CC[C@H](N4CCN(C)C(=O)C4)CC3)cc1)C(=O)C2 [NVP-CGM097] (top concentration 25000 nM)", "selective drug sensitivity score": 18.6}
{"compound": "Cc1cc([C@@H](C)Nc2ccccc2C(=O)O)c2nc(N3CCOCC3)cc(=O)n2c1 [AZD-6482] (top concentration 2500 nM)", "selective drug sensitivity score": 2.22}
{"compound": "CO[C@H]1C(=O)[C@]2(C)[C@@H](OC)C[C@H]3OC[C@@]3(OC(C)=O)[C@H]2[C@H](OC(=O)c2ccccc2)[C@]2(O)C[C@H](OC(=O)[C@H](O)[C@@H](NC(=O)OC(C)(C)C)c3ccccc3)C(C)=C1C2(C)C [Cabazitaxel] (top concentration 1000 nM)", "selective drug sensitivity score": 21.9}
{"compound": "CCCS(=O)(=O)Nc1ccc(F)c(C(=O)c2c[nH]c3ncc(-c4ccc(Cl)cc4)cc23)c1F [Vemurafenib] (top concentration 10000 nM)", "selective drug sensitivity score": 2.26}
{"compound": "Cn1c(=O)n(-c2ccc(C(C)(C)C#N)cc2)c2c3cc(-c4cnc5ccccc5c4)ccc3ncc21 [Dactolisib] (top concentration 1000 nM)", "selective drug sensitivity score": 10.3}
{"compound": "O=C(NC[C@H](O)CN1CCc2ccccc2C1)c1cc(NC2COC2)ncn1 (top concentration 10000 nM)", "selective drug sensitivity score": 1.54}
{"compound": "CC(=O)Nc1ccc(C(=O)Nc2ccccc2N)cc1 [Tacedinaline] (top concentration 1000 nM)", "selective drug sensitivity score": 4.58}
{"compound": "C=CC(=O)Nc1cccc(Nc2nc(Nc3ccc(OCCOC)cc3)ncc2F)c1 [Spebrutinib] (top concentration 1000 nM)", "selective drug sensitivity score": 0.04}
{"compound": "O=C(Nc1ccc(OC(F)(F)Cl)cc1)c1cnc(N2CC[C@@H](O)C2)c(-c2cc[nH]n2)c1 [Asciminib] (top concentration 1000 nM)", "selective drug sensitivity score": 26.2}
{"compound": "CS(=O)(=O)c1ccc(-c2cnc(N)c(C(=O)Nc3ccccc3)n2)cc1 [VE-821] (top concentration 10000 nM)", "selective drug sensitivity score": 6.94}
{"compound": "CCOC(=O)CCNc1cc(N2CCc3ccccc3CC2)nc(-c2ccccn2)n1 [GSK-J4] (top concentration 100000 nM)", "selective drug sensitivity score": -8.48}
{"compound": "NC(=O)c1cccc2cn(-c3ccc(C4CCCNC4)cc3)nc12 (centres undefined) [Niraparib] (top concentration 10000 nM)", "selective drug sensitivity score": 17.2}
{"compound": "COC(=O)c1ccc2c(c1)[nH]c1ncnc(NCCCN3CCCCC3)c12 [UM729] (top concentration 10000 nM)", "selective drug sensitivity score": 2.24}
